Test system: HEK293T-Rex ERSE-FLuc
test_method_notes: maximal ERSE-FLuc activation from dose-response fit, relative to thapsigargin (% of thapsigargin); higher = stronger activation
recorded_conditions: 18 h
Task for the reader: assign each of the following compounds its reported maximal ERSE-FLuc activation.
Lab note: record just the number, no unit beside it.

Q: Look up maximal ERSE-FLuc activation for this compound: `Oc1ccc(-c2csc3nc(-c4ccccc4)nn23)c(O)c1`
Result: 30.1

Q: Next record, please: `COc1cccc(-c2cc(C(=O)Nc3cc(C)ccc3O)no2)c1`
Result: 46.2

Q: Next record, please: COc1cccc(C2=NOC(C(=O)Nc3cc(C)ccc3O)C2)c1 (stereo unspecified)
Result: 92.8

Q: Next record, please: `Cc1ccc2c(N)c(C(=O)c3ccc4c(c3)OCO4)sc2n1`
Result: 25.1

Q: Next record, please: COc1ccc(-c2csc(N(CC3CCCO3)C(=O)CCl)n2)cc1 (stereo unspecified)
Result: 17.5

Q: Next record, please: `Nc1ccc2sc(-c3cc(Cl)c(N)c(Cl)c3)nc2c1`
Result: 22

Q: Next record, please: `CCOc1cccc(C(=O)Nc2ccc(Br)cn2)c1`
Result: 23.3

Q: Next record, please: `O=C(N/N=C\C(Br)=C\c1ccccc1)c1n[nH]c2c1CCCC2`
Result: 17.2

Q: Next record, please: `COc1ccc(-c2nn(-c3ccccc3)cc2/C=C/C(=O)O)cc1[N+](=O)[O-]`
Result: 20.8

Q: Next record, please: `CCCCCC(=O)Nc1ccc(C(=O)Nc2ccccc2O)cc1`
Result: 112

Q: Next record, please: `COc1cn(-c2ccc(F)cc2)nc1C(=O)Nc1ccccc1SC`
Result: 80.8

Q: Next record, please: `CCCNC(=O)c1cc(-c2cccs2)on1`
Result: 92.7

Q: Next record, please: `Cc1ccc(/C=N/NC(=O)c2cccc(F)c2)cc1`
Result: 23.1

Q: Next record, please: `Nc1ccc2nc(-c3cc(Cl)c(N)c(Cl)c3)[nH]c2c1`
Result: 22.7

Q: Next record, please: `CCCCCCc1ccc(-c2ncc(N)cn2)cc1`
Result: 76.7

Q: Next record, please: `O=C(N/N=C\C(Cl)=C\c1ccccc1)c1n[nH]c2c1CCCC2`
Result: 19.7

###

Task for the reader: assign each of the following compounds its reported EC50 for XBP1-RLuc reporter activation.
System: HEK293T-Rex XBP1-RLuc
test_method_notes: EC50 for XBP1-RLuc reporter activation
recorded_conditions: 18 h

Q: Look up EC50 for XBP1-RLuc reporter activation for this compound: `COc1cccc(C(=O)Nc2nc3ccc(C)cc3s2)c1`
Result: > 20.6 µM

Q: Next record, please: `C(=N/Nc1nnc2c(n1)[nH]c1ccccc12)/c1c[nH]c2ccccc12`
Result: > 16.9 µM

Q: Next record, please: `COc1ccccc1-c1nnc(Nc2nc3c(OC)cccc3s2)o1`
Result: > 16.9 µM

Q: Next record, please: `Nc1nc(Nc2ccccc2)cc(-c2ccccc2)n1`
Result: > 17.2 µM

Q: Next record, please: CC(=O)NC1C(OC2OC(CC(O)C3OC(n4ccc(=O)[nH]c4=O)C(O)C3O)C(O)C(O)C2NC(=O)/C=C\CCCCCCCCCC(C)C)OC(CO)C(O)C1O (configuration not stated)
Result: > 16.9 µM

Q: Next record, please: `N#C/C(=C\c1ccc(O)c(O)c1)C(=O)Nc1ccccc1`
Result: > 33.8 µM

Q: Next record, please: `COc1cccc(/C=N/NC(=O)c2ccc(NC(=O)c3ccc(C)cc3)cc2)c1O`
Result: > 16.9 µM

Q: Next record, please: `COc1c(O)cc2oc(-c3ccc(O)c(O)c3)cc(=O)c2c1O`
Result: 8.02 µM

Q: Next record, please: `Nc1c(C(=O)Nc2ccccc2)sc2nc3c(cc12)CCCCC3`
Result: > 16.5 µM

Q: Next record, please: `Cc1ccc(O)c(NC(=O)c2cc(-c3ccc(O)cc3)on2)c1`
Result: > 16.9 µM

Q: Next record, please: `COc1cn(-c2ccc(F)cc2)nc1C(=O)Nc1ccccc1SC`
Result: > 16.9 µM

Q: Next record, please: CC(C)CC(c1nnnn1C1CCCC1)N1CCN(C(=O)c2ccco2)CC1 (configuration not stated)
Result: > 16.9 µM

Q: Next record, please: `Cc1ccc(O)c(NC(=O)c2cc(C3CC3)on2)c1`
Result: > 16.9 µM

Q: Next record, please: `Cc1ccc(O)c(NC(=O)CCc2ccccc2)c1`
Result: > 16.9 µM

Q: Next record, please: `COc1ccccc1-c1cc(C(=O)Nc2cc(C)ccc2O)no1`
Result: > 16.9 µM

Q: Next record, please: `COc1ccc(-c2cc(C(=O)Nc3cc(C)ccc3O)on2)cc1OC`
Result: > 16.9 µM

Q: Next record, please: `CCOc1cccc(C(=O)Nc2ccc(-c3nc4ccc(C(=O)c5ccccc5)cc4[nH]3)cc2)c1`
Result: 2.33 µM

Q: Next record, please: `Cc1cc(C)nc(/N=C(\N)Nc2ccc(OCc3ccccc3)cc2)n1`
Result: 0.788 µM

Q: Next record, please: `Cn1c(-c2cccc(Cl)c2)cnc1NC(=O)c1ccccc1`
Result: > 16.9 µM

Q: Next record, please: CN(C)/C=N/C1=C(C#N)C(c2ccc3c(c2)OCO3)c2ccc3ccccc3c2O1 (configuration not stated)
Result: > 16.6 µM

Q: Next record, please: `COc1cccc(Nc2nc(-c3ccc(OC)c(F)c3)cs2)c1`
Result: > 16.9 µM

Q: Next record, please: `CC(C)NC(=O)c1cc(-c2ccc(O)cc2)on1`
Result: > 16.9 µM

Q: Next record, please: `O=C(Nc1ccc(Cl)cn1)c1ccc(Cl)cc1Cl`
Result: > 15.2 µM

Q: Next record, please: `Cc1ccc(O)c(NC(=O)c2cc(CC(C)C)on2)c1`
Result: > 16.9 µM

Q: Next record, please: `CCOc1cccc(C(=O)Nc2ccc(Br)cn2)c1`
Result: > 15.1 µM

Q: Next record, please: `CCN(CC)c1ccc2cc(-c3nc4ccccc4n3C)c(=O)oc2c1`
Result: > 10.6 µM

Q: Next record, please: `O=C1/C(=C/c2ccc(O)c(O)c2)SC(=S)N1c1ccc(O)cc1`
Result: > 16.9 µM

Q: Next record, please: `COc1ccc(CCNC(=O)c2cccc(-c3ccc(N4CCOCC4)nc3)c2)cc1`
Result: > 17 µM

Q: Next record, please: `OCCNc1nc(Nc2ccc(Cl)cc2)nc2ccccc12`
Result: 9.68 µM

Q: Next record, please: `COc1ccc(/C(C)=N/OC/C(O)=C(\C#N)c2nc3ccccc3[nH]2)cc1OC`
Result: > 17.2 µM

Q: Next record, please: `CCc1nc2sc(C(=O)c3ccccc3)c(N)c2cc1C`
Result: > 16.3 µM

Q: Next record, please: `Cc1cc(C)nc(/N=C(\N)Nc2ccc(OCc3ccc(Cl)cc3)cc2)n1`
Result: 2.03 µM

###

Task for the reader: assign each of the following compounds its reported EC50 for XBP1-RLuc reporter activation.
System: HEK293T-Rex XBP1-RLuc
test_method_notes: EC50 for XBP1-RLuc reporter activation
recorded_conditions: 18 h

Q: Look up EC50 for XBP1-RLuc reporter activation with HEK293T-Rex XBP1-RLuc for this compound: `Nc1ccccc1NC(=O)c1ccc(C(=O)Nc2ccccc2N)cc1`
Result: > 9.59 µM

Q: Next record, please: `O=C(N/N=C/c1ccc(Cl)cc1)c1n[nH]c2c1CCCC2`
Result: > 16.9 µM

Q: Next record, please: `Cc1ccc2nc(/C(C#N)=C/c3ccc(O)c(O)c3)[nH]c2c1`
Result: > 16.9 µM

Q: Next record, please: `CCCCCC(=O)Nc1ccc(C(=O)Nc2ccccc2O)cc1`
Result: > 15.6 µM

Q: Next record, please: `C=CCNC(=O)c1sc2nc3cc(C)c(C)cc3cc2c1N`
Result: > 16.9 µM

Q: Next record, please: `CN(C)c1ccc(/C=C/C(=O)NC(=O)c2ccccc2OC(=O)c2ccccc2)cc1`
Result: > 12.9 µM

Q: Next record, please: `O=[N+]([O-])c1ccc(/C=C/c2ccc(O)cc2)cc1`
Result: 12.4 µM

Q: Next record, please: `Cc1ccc(-c2csc(Nc3ccc(O)cc3)n2)cc1`
Result: 8.04 µM

Q: Next record, please: CC(Oc1ccc(Cl)cc1Cl)C(=O)NNC(=O)c1ccc(O)c(O)c1 (stereo not given)
Result: > 14.9 µM

Q: Next record, please: `Cc1ccc(C(=O)Nc2ccccc2N)cc1`
Result: > 14.7 µM

###

Tested on: HEK293T-Rex ERSE-FLuc
test_method_notes: maximal ERSE-FLuc activation from dose-response fit, relative to thapsigargin (% of thapsigargin); higher = stronger activation
recorded_conditions: 18 h
Task for the reader: assign each of the following compounds its reported maximal ERSE-FLuc activation.
Lab note: record just the number, no unit beside it.

Q: Look up maximal ERSE-FLuc activation for this compound: `CN(C)c1ccc(C(=NO)c2ccc(N(C)C)cc2)cc1`
Result: 21.7

Q: Next record, please: `Cc1cc(C)c2nc3sc(C(=O)N4CCCCC4)c(N)c3cc2c1`
Result: 34

Q: Next record, please: `COc1ccccc1/C=C/C(=O)Nc1ccc(Cl)cn1`
Result: 27.3

Q: Next record, please: `Cc1ccc(O)c(NC(=O)c2cc(C(C)C)on2)c1`
Result: 39.9

Q: Next record, please: `CC(=O)Nc1ccc2nc(-c3ccc(OC(C)=O)cc3)sc2c1`
Result: 15.7

Q: Next record, please: `COc1ccc(/C=N/c2sc3c(c2C(N)=O)CCCC3)cc1`
Result: 20.9

Q: Next record, please: `Cc1ccc(O)c(NC(=O)CSc2ccccc2)c1`
Result: 83.1

Q: Next record, please: `COc1ccc(-c2csc(-c3ccc(O)cc3)n2)cc1`
Result: 30.9

Q: Next record, please: CN(C)c1ccc(C2C(C#N)=C(N)Oc3c2sc2ccccc32)cc1[N+](=O)[O-] (stereo not drawn)
Result: 15.8

Q: Next record, please: `O=C1/C(=C/c2ccc(O)c(O)c2)Oc2cc(O)ccc21`
Result: 46.2

Q: Next record, please: `CCc1ccc(NC(=O)/C=C/c2ccco2)cc1`
Result: 19.3

Q: Next record, please: `O=C(CC(=O)Nc1ccc2nc3n(c(=O)c2c1)CCCCC3)NCc1ccco1`
Result: 77.9

Q: Next record, please: `Cc1ccc(NC(=O)/C=C/c2ccco2)nc1`
Result: 17.5

The origin of these recorded values is the supplement of paper PMC4954754.
